# ASSAY INFO: in vivo
# CONDITION CONTEXT: male, BALB/c, mouse, iv, 5 mg/kg
TEST READOUT: clearance at 24 h (L/h/kg)
Reply with just the number (in L/h/kg).

IN: Fill in the blank: the reported clearance at 24 h of CC1=C(C(=O)Nc2ccccc2C)C(c2ccco2)C2=C(CCCC2=O)N1 (stereo not shown) [Compound 1, reference compound] is ____.
OUT: 0.507

IN: Fill in the blank: the reported clearance at 24 h of CCCC1C(C(=O)Nc2cc(Cl)ccc2Cl)=C(C)NC2=C1C(=O)CCC2 (stereo not shown) is ____.
OUT: 4.22

IN: Fill in the blank: the reported clearance at 24 h of CC1=C(C(=O)Nc2cc(Cl)ccc2Cl)C(c2ccco2)C2=C(CCCC2=O)N1 (stereo not shown) [Compound 16, reference compound] is ____.
OUT: 1.18

IN: Fill in the blank: the reported clearance at 24 h of CC1=C(C(=O)Nc2cc(Cl)ccc2Cl)C(C2CCCC2)C2=C(CCCC2=O)N1 (stereo not shown) is ____.
OUT: 1.22

###

Provide the recorded GTPγS pEC50 for the entries that follow.
# STUDY TARGET: hFFA3 (Homo sapiens, UniProt O14843)
# Sequence (O14843 whole entry): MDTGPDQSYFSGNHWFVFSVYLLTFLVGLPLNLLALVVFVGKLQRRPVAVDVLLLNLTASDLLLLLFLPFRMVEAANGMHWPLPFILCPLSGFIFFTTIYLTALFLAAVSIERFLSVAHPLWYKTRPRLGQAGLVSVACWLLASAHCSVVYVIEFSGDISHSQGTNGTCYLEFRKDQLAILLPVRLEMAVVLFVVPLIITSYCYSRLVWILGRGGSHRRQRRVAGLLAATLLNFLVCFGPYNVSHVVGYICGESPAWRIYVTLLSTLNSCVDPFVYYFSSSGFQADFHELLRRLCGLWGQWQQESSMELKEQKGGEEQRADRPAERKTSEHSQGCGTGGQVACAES
# ASSAY INFO: biochemical
# CONDITION CONTEXT: hFFA3; mean of ≥3 independent experiments ± standard error

IN: Report GTPγS pEC50 for CC1=C(C(=O)Nc2ccccc2C)C(c2cccs2)C2=C(CCCC2=O)N1 (centres unmarked) tested on hFFA3 (Homo sapiens, UniProt O14843).
OUT: 5.52 ± 0.18

IN: Report GTPγS pEC50 for CC1=C(C(=O)Nc2ccccc2C)C(c2ccc(C)cc2)C2=C(CCCC2=O)N1 (centres unmarked) tested on hFFA3 (Homo sapiens, UniProt O14843).
OUT: 4.52 ± 0.11

IN: Report GTPγS pEC50 for CCc1ccc(C2C(C(=O)Nc3ccccc3C)=C(C)NC3=C2C(=O)CCC3)cc1 (centres unmarked) tested on hFFA3 (Homo sapiens, UniProt O14843).
OUT: 4.08 ± 0.26

IN: Report GTPγS pEC50 for CC1=C(C(=O)Nc2ccccc2C)C(c2ccccc2)C2=C(CCCC2=O)N1 (centres unmarked) tested on hFFA3 (Homo sapiens, UniProt O14843).
OUT: 4.75 ± 0.11

IN: Report GTPγS pEC50 for CC1=C(C(=O)Nc2ccccc2C)C(c2ccco2)C2=C(CCCC2=O)N1 (centres unmarked) [Compound 1, reference compound] tested on hFFA3 (Homo sapiens, UniProt O14843).
OUT: 5.65 ± 0.07

IN: Report GTPγS pEC50 for CC1=C(C(=O)Nc2ccccc2)C(c2ccco2)C2=C(CCCC2=O)N1 (centres unmarked) tested on hFFA3 (Homo sapiens, UniProt O14843).
OUT: 5.11 ± 0.12

IN: Report GTPγS pEC50 for CC1=C(C(=O)Nc2cccc(C)c2)C(c2ccco2)C2=C(CCCC2=O)N1 (centres unmarked) tested on hFFA3 (Homo sapiens, UniProt O14843).
OUT: 5.34 ± 0.15

IN: Report GTPγS pEC50 for CC1=C(C(=O)Nc2ccccc2Cl)C(CC(C)C)C2=C(CCCC2=O)N1 (centres unmarked) tested on hFFA3 (Homo sapiens, UniProt O14843).
OUT: 5.41 ± 0.13

IN: Report GTPγS pEC50 for CC1=C(C(=O)Nc2ccccc2C)C(CC(C)C)C2=C(CCCC2=O)N1 (centres unmarked) tested on hFFA3 (Homo sapiens, UniProt O14843).
OUT: 5.68 ± 0.13

IN: Report GTPγS pEC50 for CC1=C(C(=O)Nc2ccccc2C)C(c2cccc(C(F)(F)F)c2)C2=C(CCCC2=O)N1 (centres unmarked) tested on hFFA3 (Homo sapiens, UniProt O14843).
OUT: 4.81 ± 0.13

IN: Report GTPγS pEC50 for CC1=C(C(=O)Nc2cc(Cl)ccc2Cl)C(c2ccco2)C2=C(CCCC2=O)N1 (centres unmarked) [Compound 16, reference compound] tested on hFFA3 (Homo sapiens, UniProt O14843).
OUT: 5.74 ± 0.11

IN: Report GTPγS pEC50 for CC1=C(C(=O)Nc2c(F)cccc2F)C(CC(C)C)C2=C(CCCC2=O)N1 (centres unmarked) tested on hFFA3 (Homo sapiens, UniProt O14843).
OUT: 4.67 ± 0.22

IN: Report GTPγS pEC50 for COc1ccccc1NC(=O)C1=C(C)NC2=C(C(=O)CCC2)C1c1ccco1 (centres unmarked) tested on hFFA3 (Homo sapiens, UniProt O14843).
OUT: 4.71 ± 0.28

IN: Report GTPγS pEC50 for CC1=C(C(=O)Nc2ccccc2C)C(c2cccc(Br)c2)C2=C(CCCC2=O)N1 (centres unmarked) tested on hFFA3 (Homo sapiens, UniProt O14843).
OUT: 5.49 ± 0.08

IN: Report GTPγS pEC50 for CC1=C(C(=O)Nc2cccc(C)c2C)C(CC(C)C)C2=C(CCCC2=O)N1 (centres unmarked) tested on hFFA3 (Homo sapiens, UniProt O14843).
OUT: 5.26 ± 0.16

IN: Report GTPγS pEC50 for CC1=C(C(=O)Nc2ccccc2C)C(c2ccc(Br)cc2)C2=C(CCCC2=O)N1 (centres unmarked) tested on hFFA3 (Homo sapiens, UniProt O14843).
OUT: 5.43 ± 0.09

IN: Report GTPγS pEC50 for CC1=C(C(=O)Nc2ccccc2C)C(c2ccc(C(F)(F)F)cc2)C2=C(CCCC2=O)N1 (centres unmarked) tested on hFFA3 (Homo sapiens, UniProt O14843).
OUT: 5.12 ± 0.13

###

Provide the recorded half-life at 24 h for the entries that follow.
# ASSAY INFO: in vivo
# CONDITION CONTEXT: male, BALB/c, mouse, po, 10 mg/kg
Reply with just the number (in h).

IN: Fill in the blank: the reported half-life at 24 h of CC1=C(C(=O)Nc2cc(Cl)ccc2Cl)C(C2CCCC2)C2=C(CCCC2=O)N1 (stereo not shown) [Compound 63] is ____.
OUT: 0.863

IN: Fill in the blank: the reported half-life at 24 h of CC1=C(C(=O)Nc2cc(Cl)ccc2Cl)C(c2ccco2)C2=C(CCCC2=O)N1 (stereo not shown) [Compound 16, reference compound] is ____.
OUT: 1.01

IN: Fill in the blank: the reported half-life at 24 h of CCCC1C(C(=O)Nc2cc(Cl)ccc2Cl)=C(C)NC2=C1C(=O)CCC2 (stereo not shown) [Compound 57] is ____.
OUT: 1.06

IN: Fill in the blank: the reported half-life at 24 h of CC1=C(C(=O)Nc2ccccc2C)C(c2ccco2)C2=C(CCCC2=O)N1 (stereo not shown) [Compound 1, reference compound] is ____.
OUT: 1.5

###

# ASSAY INFO: in vivo
# CONDITION CONTEXT: male, BALB/c, mouse, iv, 5 mg/kg
# Protocol: The study was performed by Bienta (www.bienta.net). Study design, animal selection, handling, and treatment were all in accordance with the Enamine PK study protocols and Institutional Animal Care and Use Guidelines. Animal treatment and plasma samples preparation were conducted by the Animal Laboratory personnel at Enamine/Bienta. […] After mixing by pipetting and centrifuging for 4 min at 6000 rpm, 0.5–1 μL of each supernatant was analyzed by HPLC-MS/MS on an API 3000 PE instrument.
TEST READOUT: half-life (min)
Reply with just the number (in min).

IN: Fill in the blank: the reported half-life of CC1=C(C(=O)Nc2cc(Cl)ccc2Cl)C(c2ccco2)C2=C(CCCC2=O)N1 (stereo not shown) [Compound 16, reference compound] is ____.
OUT: 20

###

# ASSAY INFO: in vivo
# CONDITION CONTEXT: male, BALB/c, mouse, po, 10 mg/kg
TEST READOUT: Tmax at 24 h (min)
Reply with just the number (in min).

IN: Fill in the blank: the reported Tmax at 24 h of CC1=C(C(=O)Nc2cc(Cl)ccc2Cl)C(C2CCCC2)C2=C(CCCC2=O)N1 (stereo not shown) [Compound 63] is ____.
OUT: 15

IN: Fill in the blank: the reported Tmax at 24 h of CCCC1C(C(=O)Nc2cc(Cl)ccc2Cl)=C(C)NC2=C1C(=O)CCC2 (stereo not shown) [Compound 57] is ____.
OUT: 30

IN: Fill in the blank: the reported Tmax at 24 h of CC1=C(C(=O)Nc2ccccc2C)C(c2ccco2)C2=C(CCCC2=O)N1 (stereo not shown) [Compound 1, reference compound] is ____.
OUT: 15

IN: Fill in the blank: the reported Tmax at 24 h of CC1=C(C(=O)Nc2cc(Cl)ccc2Cl)C(c2ccco2)C2=C(CCCC2=O)N1 (stereo not shown) [Compound 16, reference compound] is ____.
OUT: 30

###

# STUDY TARGET: hFFA3 (Homo sapiens)
# ASSAY INFO: cell-based
# CONDITION CONTEXT: HEK293, read-out: cAMP Emax
# Description: The ligands were initially screened in a human FFA3-dependent [^35S]GTPγS binding assay as this assay reflects receptor-mediated activation of Gi/o proteins and is known to generally correlate well with ligand affinity.[30] […] HEK293 Flp-In T-Rex cells stably transfected with FFA3-eYFP receptors were incubated overnight with doxycycline to induce expression, then harvested, and cryopreserved. […] Reactions were measured using a PHERAstar FS plate reader (BMGLabtech, Aylesbury, UK).
TEST READOUT: Emax (%)
Reply with just the number (in %).

IN: Fill in the blank: the reported Emax of CCC(C)C1C(C(=O)Nc2ccccc2C)=C(C)NC2=C1C(=O)CCC2 (stereo not shown) is ____.
OUT: 110

IN: Fill in the blank: the reported Emax of CCC1=C(C(=O)Nc2ccccc2C)C(c2ccco2)C2=C(CCCC2=O)N1 (stereo not shown) is ____.
OUT: 95

IN: Fill in the blank: the reported Emax of CC1=C(C(=O)Nc2cc(Cl)ccc2Cl)C(c2cncs2)C2=C(CCCC2=O)N1 (stereo not shown) is ____.
OUT: 97

IN: Fill in the blank: the reported Emax of CC1=C(C(=O)Nc2ccccc2C)C(c2ccoc2)C2=C(CCCC2=O)N1 (stereo not shown) [Compound 2, reference compound] is ____.
OUT: 97
